# Tested on: MOLM1 and UCSD/AML1 (averaged)
# Experiment description: cell viability relative to DMSO control (POC); higher = less growth inhibition
# Conditions: 1 µM; 72 h
About 180 (8.6%) of roughly 2,100 compounds showed an effect of 50% or more. The list comes from a sample in which strong results are over-represented; it also holds close analogues and randomly drawn compounds.
Measured property: cell viability
Param answer (str): number followed by unit.

[
  {
    "Compound": "CC(=O)OC1CCC23C(=O)OC45CCC(C6=CC(=O)OC6)C4(C)CCC2C5CCC3(O)C1 (stereo not given)",
    "Assayed system": "MOLM1 and UCSD/AML1 (averaged)",
    "cell viability": "5.23%"
  },
  {
    "Compound": "CC(=O)[C@H]1CC[C@H]2[C@@H]3CC[C@H]4C[C@H](O)CC[C@]4(C)[C@H]3CC[C@]12C",
    "Assayed system": "MOLM1 and UCSD/AML1 (averaged)",
    "cell viability": "87.7%"
  },
  {
    "Compound": "COc1cc(OC)c2c(c1)O[C@H](c1ccc(OC)c(OC)c1)[C@@H](O)C2",
    "Assayed system": "MOLM1 and UCSD/AML1 (averaged)",
    "cell viability": "100%"
  },
  {
    "Compound": "C[C@@]12C(=O)OC(=O)[C@]1(C)[C@H]1CC[C@@H]2O1",
    "Assayed system": "MOLM1 and UCSD/AML1 (averaged)",
    "cell viability": "101%"
  }
]

Consider the additional compound presented here.
[in] Dear colleague, I am looking for the recorded cell viability of the following compound: O=C(O)COc1cc(Cl)c(Cl)cc1Cl
[out] 98.7%

* * *

# Test system: MOLM1 and UCSD/AML1 (averaged)
# Experiment description: cell viability relative to DMSO control (POC); higher = less growth inhibition
# Conditions: 1 µM; 72 h
In all, about 2,100 compounds went through this assay and about 180 (8.6%) showed an effect of 50% or more. For the sample, strong results were picked, then their nearest neighbours and some compounds at random.
Recorded cell viability values for a group of compounds are listed next.
Record the value in %, omitting the unit from your answer.

[
  {
    "Compound": "CC(C)(O)[C@@H]1[C@H]2OC(=O)[C@@H]1[C@]1(O)C[C@H]3O[C@]34C(=O)O[C@H]2[C@]14C",
    "cell viability / %": 87.8
  },
  {
    "Compound": "CC[C@@H](C)C(=O)O[C@H]1[C@H](O)[C@H]2[C@@H](CN3C[C@@H](C)CC[C@H]3[C@@]2(C)O)[C@@H]2C[C@]34O[C@]5(O)[C@@H](OC(=O)[C@@](C)(O)CC)CC[C@@]3(C)[C@@H]5[C@@H](OC(C)=O)[C@@H](OC(C)=O)[C@H]4[C@@]21O",
    "cell viability / %": 89.1
  },
  {
    "Compound": "C=CCC1(C(C)CCC)C(=O)NC(=S)NC1=O (centres undefined)",
    "cell viability / %": 89.9
  }
]

[in] Dear colleague, I am looking for the recorded cell viability of the following compound: CC1(C)C2CC(=O)[C@]3(C)C(CC[C@@]4(C)[C@H](c5ccoc5)OC(=O)[C@H]5O[C@]543)[C@@]2(C)C(=O)C[C@H]1O (some centres undefined)
[out] 87.6

* * *

Recorded cell viability values for a group of compounds are listed next.
# Tested on: MOLM1 and UCSD/AML1 (averaged)
# Experiment description: cell viability relative to DMSO control (POC); higher = less growth inhibition
# Conditions: 1 µM; 72 h
The campaign covered roughly 2,100 compounds. About 180 (8.6%) showed an effect of 50% or more. Many of the other results were omitted from the sample, so strong results are more common in it than they were.
Record the value in %, omitting the unit from your answer.

[
  {
    "Compound": "CC(C)=CCCC1(C)C=Cc2c(O)c3c(c(CC=C(C)C)c2O1)OC12C(=CC4CC1C(C)(C)OC2(C/C=C(/C)C(=O)O)C4O)C3=O (configuration not stated)",
    "cell viability, %": 99.7
  }
]

[in] Dear colleague, I am looking for the recorded cell viability of the following compound: COc1cc2c(cc1-c1cc3cc4ccoc4cc3oc1=O)OCO2
[out] 99.4

[in] Dear colleague, I am looking for the recorded cell viability of the following compound: COc1cc([C@@H]2c3cc4c(cc3[C@H](O)[C@H]3COC(=O)[C@H]23)OCO4)cc(OC)c1OC
[out] 6.17

* * *

# Test system: MOLM1 and UCSD/AML1 (averaged)
# Experiment description: cell viability relative to DMSO control (POC); higher = less growth inhibition
# Conditions: 1 µM; 72 h
Out of some 2,100 compounds screened, about 180 (8.6%) showed an effect of 50% or more. This excerpt belongs to a sample that is enriched for strong results.
Measured property: cell viability (%)
Record the value in %, omitting the unit from your answer.

Below, 3 compounds whose answers are already recorded.
[
  {
    "Compound": "C[C@H]1CC[C@]2(NC1)O[C@H]1C[C@H]3[C@@H]4CC[C@H]5C[C@@H](O)CC[C@]5(C)[C@H]4CC[C@]3(C)[C@H]1[C@@H]2C",
    "Assayed system": "MOLM1 and UCSD/AML1 (averaged)",
    "Observed value": 93.3
  },
  {
    "Compound": "O=C1C=C2C(=CCOC2O)O1 (centres undefined)",
    "Assayed system": "MOLM1 and UCSD/AML1 (averaged)",
    "Observed value": 1.61
  },
  {
    "Compound": "C[C@@H](N)[C@@H](O)c1ccccc1",
    "Assayed system": "MOLM1 and UCSD/AML1 (averaged)",
    "Observed value": 106
  }
]

[in] Dear colleague, I am looking for the recorded cell viability of the following compound: CCC(C)C(=O)O[C@@H]1C[C@@]2(C)[C@H](c3ccoc3)OC(=O)CC23OC2(C)O[C@]14[C@]1(C)[C@@H](CC(=O)OC)C5(C)CC1(O)[C@](O)(C5OC(=O)C1(C)OC1C)[C@@H](OC(C)=O)[C@]34O2 (some centres undefined)
[out] 95.6

[in] Dear colleague, I am looking for the recorded cell viability of the following compound: CCN1C[C@]2(OC(=O)c3ccccc3NC(C)=O)CC[C@H](OC)[C@@]34[C@@H]2C[C@@H]([C@@H]13)[C@@]1(O)C[C@H](OC)[C@H]2C[C@@H]4[C@]1(O)[C@H]2OC
[out] 96.8

[in] Dear colleague, I am looking for the recorded cell viability of the following compound: CC1=C(O)C(=O)C=C2C1=CC=C1[C@@]2(C)CC[C@@]2(C)[C@@H]3C[C@](C)(C(=O)O)CC[C@]3(C)CC[C@]12C
[out] 30.1

[in] Dear colleague, I am looking for the recorded cell viability of the following compound: CO[C@H]1C[C@H](O[C@H]2CC[C@]3(C=O)[C@H]4CC[C@]5(C)[C@@H](C6=CC(=O)OC6)CC[C@]5(O)[C@@H]4CC[C@]3(O)C2)O[C@H](C)[C@H]1O
[out] 3.81

[in] Dear colleague, I am looking for the recorded cell viability of the following compound: C[C@@H]1O[C@@H](O[C@H]2C[C@@H](O)[C@]3(CO)[C@H]4[C@H](O)C[C@]5(C)[C@@H](C6=CC(=O)OC6)CC[C@]5(O)[C@@H]4CC[C@]3(O)C2)[C@H](O)[C@H](O)[C@H]1O
[out] 1.94

[in] Dear colleague, I am looking for the recorded cell viability of the following compound: COc1cc2c(cc1O)C[C@H]1c3c(cc(O)c(OC)c3-2)CCN1C
[out] 99

[in] Dear colleague, I am looking for the recorded cell viability of the following compound: C[C@]12CC[C@H](O)C[C@@H]1CC[C@@H]1[C@@H]2CC[C@]2(C)C(=O)CC[C@@H]12
[out] 98.7

[in] Dear colleague, I am looking for the recorded cell viability of the following compound: C#CCN(C)[C@H](C)Cc1ccccc1
[out] 84.3

[in] Dear colleague, I am looking for the recorded cell viability of the following compound: C=C[C@H]1CN2CC[C@H]1C[C@H]2[C@H](OC(=O)OCC)c1ccnc2ccc(OC)cc12
[out] 98.5

[in] Dear colleague, I am looking for the recorded cell viability of the following compound: CC[C@@H](CO)NC(=O)[C@@H]1C=C2c3cccc4[nH]cc(c34)C[C@H]2N(C)C1
[out] 98

[in] Dear colleague, I am looking for the recorded cell viability of the following compound: CN1C[C@H](C(=O)N[C@]2(C)O[C@@]3(O)[C@@H]4CCCN4C(=O)[C@H](Cc4ccccc4)N3C2=O)C=C2c3cccc4[nH]cc(c34)C[C@H]21
[out] 48.2
